protocol: Thermal equilibrium T2 at high field (14.1T), CPMG
Type: physicochemical
applied.conditions: 95:5 D2O:H2O, 100 mM Tris pD 7.4
Experimental: [5-^13C]-glutamine (Cambridge Isotope Laboratories), [^13C]-urea (Sigma Aldrich), [^13C, ^15N2]-urea (Sigma Aldrich), [6-^13C]-arginine (Cambridge Isotope Laboratories), [5-^13C, ^15N]-glutamine (24) (24, as described in Example 7) and [6-^13C, ^15N3]-arginine (21, as described in Example 2) were evaluated to determine thermal equilibrium T1 and T2. An aliquot of each compound was dissolved in 95:5 D2O:H2O containing 100 mM Tris pD 7.4 and 100% H2O containing 100 mM Tris pH 7.4. […]
readout: T2 Value (s) D2O

N=[13C](N)NCCC[C@H](N)C(=O)O [Arginine ^13C, [6-^13C]-arginine] | 0.234

(a) [15NH2][13C]([15NH2])=O [Urea ^13C, ^15N2, [^13C, ^15N2]-urea]
(b) N[C@@H](CC[13C](N)=O)C(=O)O [Glutamine ^13C, [5-^13C]-glutamine]
Select one: a or b . Criterion: greater recorded T2 Value (s) D2O. Answer format: the label of the selected item. a

(P) N[13C](N)=O [Urea ^13C, [^13C]-urea]
(Q) N[C@@H](CC[13C]([15NH2])=O)C(=O)O [Compound 24, (5-13C, 5-15N) L-glutamine]
Param pair: P , Q . Output: the one whose T2 Value (s) D2O is numerically greater. Identify your selection by its label. Q
(Q: 4.66 s, P: 0.100 s)

====

protocol: Hyperpolarized T1 at 1T after dissolution in buffered H2O or D2O
Type: physicochemical
applied.conditions: dissolution in 100 mM Tris 1 mM EDTA pH 7.4 H2O
readout: Hyperpolarized T1 Value (s) H2O

These recorded examples may help you get a feel for the data.
N[13C](N)=O [Urea ^13C, [^13C]-urea] | 51.6
N[C@@H](CC[13C]([15NH2])=O)C(=O)O [Compound 24, (5-13C, 5-15N) L-glutamine] | 23.6

(A) N[C@@H](CC[13C](N)=O)C(=O)O [Glutamine ^13C, [5-^13C]-glutamine]
(B) [15NH2][13C]([15NH2])=O [Urea ^13C, ^15N2, [^13C, ^15N2]-urea]
Which gives the smaller Hyperpolarized T1 Value (s) H2O number: A or B ? When you have decided, please share the label of that item. A
(A: 21.8 s, B: 53.3 s)

====

protocol: Thermal equilibrium T1 at high field (14.1T), inversion recovery
Type: physicochemical
applied.conditions: 95:5 D2O:H2O, 100 mM Tris pD 7.4
readout: T1 Value (s) D2O

N[13C](N)=O [Urea ^13C, [^13C]-urea] | 57.24
N[C@@H](CC[13C]([15NH2])=O)C(=O)O [Compound 24, (5-13C, 5-15N) L-glutamine] | 12.29
N=[13C](N)NCCC[C@H](N)C(=O)O [Arginine ^13C, [6-^13C]-arginine] | 9.74

(a) [15NH2][13C]([15NH2])=O [Urea ^13C, ^15N2, [^13C, ^15N2]-urea]
(b) N[C@@H](CC[13C](N)=O)C(=O)O [Glutamine ^13C, [5-^13C]-glutamine]
Out of a and b , name the one with the higher T1 Value (s) D2O. State your choice using its label. a
(a: 57.34 s, b: 12.34 s)
